Data origin, for the record: ChEMBL document CHEMBL5126588

- System Name: Histone deacetylase 8 (Homo sapiens)
- Sequence (Q9BY41 whole entry): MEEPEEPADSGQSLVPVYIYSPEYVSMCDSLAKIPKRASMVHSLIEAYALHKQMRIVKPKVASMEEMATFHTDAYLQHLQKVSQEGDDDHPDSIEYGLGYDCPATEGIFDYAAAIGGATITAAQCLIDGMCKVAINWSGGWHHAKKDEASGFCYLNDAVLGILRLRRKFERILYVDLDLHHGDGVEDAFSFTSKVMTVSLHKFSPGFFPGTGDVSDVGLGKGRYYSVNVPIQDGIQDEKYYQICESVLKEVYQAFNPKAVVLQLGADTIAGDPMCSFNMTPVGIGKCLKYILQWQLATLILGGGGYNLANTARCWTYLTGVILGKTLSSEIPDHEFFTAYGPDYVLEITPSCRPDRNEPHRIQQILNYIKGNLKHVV
Assay Endpoint: Kd (µM)
Numbers only, in µM.

Enquiry: State, in one line, measured Kd of `COc1ccc(Cn2ccc3ccc(C(=O)NO)cc32)cc1C(=O)NCCNc1ccc(S(=O)(=O)N(C)C)c2nonc12`
Return: 5.37
